- System: E. coli MC 4100 Tet sens.
- Experimental details: MIC, agar dilution method
- Assay type: cell-based
- Assay context: Escherichia coli, 18 hours at 35° C., read-out: MIC
Where a name gives a salt, the structure may show the parent alone.
Exercise: state measured MIC for each of the compounds provided.
Answers are plain numbers, in µg/mL.

# Compound, Assayed system, Measure unit, MIC
records = [
    ("CN(C)[C@@H]1C(O)=C(C(N)=O)C(=O)[C@@]2(O)C(O)=C3C(=O)c4c(cc(Cl)c(NC(=O)CCl)c4O)CC3CC12 (some centres unmarked) [K, hydrochloride]", "E. coli MC 4100 Tet sens.", "µg/mL", 8),
]

Please give MIC, item by item, for the list that follows.
1. CN(C)CC(=O)Nc1c(O)c2c(c(N(C)C)c1Cl)CC1CC3[C@H](N(C)C)C(O)=C(C(N)=O)C(=O)[C@@]3(O)C(O)=C1C2=O (some centres unmarked) [B]
2. CN(C)CC(=O)Nc1c(Cl)cc2c(c1O)C(=O)C1=C(O)[C@]3(O)C(=O)C(C(N)=O)=C(O)[C@@H](N(C)C)C3CC1C2 (some centres unmarked) [C]

Given back:
1. 2
2. 0.25

Please give MIC, item by item, for the list that follows.
1. CCCCCNCC(=O)Nc1c(Cl)cc2c(c1O)C(=O)C1=C(O)[C@]3(O)C(=O)C(C(N)=O)=C(O)[C@@H](N(C)C)C3CC1C2 (some centres unmarked) [H, dihydrochloride]
2. CCCCNCC(=O)Nc1c(Cl)cc2c(c1O)C(=O)C1=C(O)[C@]3(O)C(=O)C(C(N)=O)=C(O)[C@@H](N(C)C)C3CC1C2 (some centres unmarked) [D, dihydrochloride]

Given back:
[0.25, 0.25]

----------
- Test system: E. coli PRP1 Tet A
- Experimental details: microbe, parasite or virus in culture
- Assay type: cell-based
- Assay context: Escherichia coli, PRP1TETA, 18 h, 18 hours at 35° C.
Counter-ions that a name gives are not always drawn.
Exercise: state measured MIC for each of the compounds provided.
One number for each entry, in µg/mL.

Please give MIC, item by item, for the list that follows.
1. CCCCCNCC(=O)Nc1c(Cl)cc2c(c1O)C(=O)C1=C(O)[C@]3(O)C(=O)C(C(N)=O)=C(O)[C@@H](N(C)C)C3CC1C2 (stereo partly drawn) [H, dihydrochloride]
2. CCCCNCC(=O)Nc1c(Cl)cc2c(c1O)C(=O)C1=C(O)[C@]3(O)C(=O)C(C(N)=O)=C(O)[C@@H](N(C)C)C3CC1C2 (stereo partly drawn) [D, dihydrochloride]
3. CN(C)[C@@H]1C(O)=C(C(N)=O)C(=O)[C@@]2(O)C(O)=C3C(=O)c4c(cc(Cl)c(NC(=O)CN5CCCC5)c4O)CC3CC12 (stereo partly drawn) [E, dihydrochloride]

Given back:
1: 2; 2: 4; 3: 2

----------
- Tested on: E. coli J2175
- Experimental details: MIC, agar dilution method
- Format: cell-based
- Assay context: Escherichia coli, 18 hours at 35° C., read-out: MIC
Structures can show the parent of a compound that is named as a salt.
Exercise: state measured MIC for each of the molecules provided.
One number for each entry, in µg/mL.

Examples with answers:
# Molecule, Val
data = [
    ("CN(C)CC(=O)Nc1c(Cl)cc2c(c1O)C(=O)C1=C(O)[C@]3(O)C(=O)C(C(N)=O)=C(O)[C@@H](N(C)C)C3CC1C2 (stereo partly drawn)", 1),
    ("CN(C)CC(=O)Nc1c(O)c2c(c(N(C)C)c1Cl)CC1CC3[C@H](N(C)C)C(O)=C(C(N)=O)C(=O)[C@@]3(O)C(O)=C1C2=O (stereo partly drawn)", 32),
]

Next item in the queue.
Asked: MIC for CCCCNCC(=O)Nc1c(Cl)cc2c(c1O)C(=O)C1=C(O)[C@]3(O)C(=O)C(C(N)=O)=C(O)[C@@H](N(C)C)C3CC1C2 (stereo partly drawn) [D, dihydrochloride] ?
Given back: 1

----------
Exercise: state measured MIC for each of the molecules provided.
- Test system: E. coli #311 (MP)
- Experimental details: MIC, agar dilution method
- Type: cell-based
- Assay context: Escherichia coli, 18 hours at 35° C., read-out: MIC
Counter-ions that a name gives are not always drawn.
One number for each entry, in µg/mL.

Examples with answers:
# Molecule, MIC / µg/mL
records = [
    ("CN(C)CC(=O)Nc1c(O)c2c(c(N(C)C)c1Cl)CC1CC3[C@H](N(C)C)C(O)=C(C(N)=O)C(=O)[C@@]3(O)C(O)=C1C2=O (some centres unmarked)", 4),
    ("CNCC(=O)Nc1c(Cl)cc2c(c1O)C(=O)C1=C(O)[C@]3(O)C(=O)C(C(N)=O)=C(O)[C@@H](N(C)C)C3CC1C2 (some centres unmarked) [I, dihydrochloride]", 2),
    ("CN(C)CC(=O)Nc1c(Cl)cc2c(c1O)C(=O)C1=C(O)[C@]3(O)C(=O)C(C(N)=O)=C(O)[C@@H](N(C)C)C3CC1C2 (some centres unmarked)", 0.5),
    ("CCCCNCC(=O)Nc1c(Cl)cc2c(c1O)C(=O)C1=C(O)[C@]3(O)C(=O)C(C(N)=O)=C(O)[C@@H](N(C)C)C3CC1C2 (some centres unmarked) [D, dihydrochloride]", 1),
    ("CN(C)[C@@H]1C(O)=C(C(N)=O)C(=O)[C@@]2(O)C(O)=C3C(=O)c4c(cc(Cl)c(NC(=O)CN5CCCC5)c4O)CC3CC12 (some centres unmarked) [E, dihydrochloride]", 0.25),
    ("CN(C)[C@@H]1C(O)=C(C(N)=O)C(=O)[C@@]2(O)C(O)=C3C(=O)c4c(cc(Cl)c(NC(=O)CCl)c4O)CC3CC12 (some centres unmarked) [K, hydrochloride]", 16),
    ("CCCNCC(=O)Nc1c(Cl)cc2c(c1O)C(=O)C1=C(O)[C@]3(O)C(=O)C(C(N)=O)=C(O)[C@@H](N(C)C)C3CC1C2 (some centres unmarked) [F, dihydrochloride]", 0.5),
]

Next item in the queue.
Asked: MIC for CCCCCNCC(=O)Nc1c(Cl)cc2c(c1O)C(=O)C1=C(O)[C@]3(O)C(=O)C(C(N)=O)=C(O)[C@@H](N(C)C)C3CC1C2 (some centres unmarked) [H, dihydrochloride] ?
Given back: 2

----------
- Test system: S. hemolyticus AVHAH 88-3
- Experimental details: MIC, agar dilution method
- Assay type: cell-based
- Assay context: Streptococcus pyogenes, AVHAH883, 18 h, 18 hours at 35° C.
Counter-ions that a name gives are not always drawn.
Exercise: state measured MIC for each of the compounds provided.

Examples with answers:
# Compound, Val
measured = [
    ("CN(C)[C@@H]1C(O)=C(C(N)=O)C(=O)[C@@]2(O)C(O)=C3C(=O)c4c(cc(Cl)c(NC(=O)CN5CCCC5)c4O)CC3CC12 (stereo partly drawn) [E, dihydrochloride]", "2 µg/mL"),
    ("CN(C)[C@@H]1C(O)=C(C(N)=O)C(=O)[C@@]2(O)C(O)=C3C(=O)c4c(O)cccc4[C@@](C)(O)[C@H]3C[C@@H]12", "1 µg/mL"),
    ("CCCCCNCC(=O)Nc1c(Cl)cc2c(c1O)C(=O)C1=C(O)[C@]3(O)C(=O)C(C(N)=O)=C(O)[C@@H](N(C)C)C3CC1C2 (stereo partly drawn) [H, dihydrochloride]", "4 µg/mL"),
    ("CN(C)c1ccc(O)c2c1C[C@H]1C[C@H]3[C@H](N(C)C)C(O)=C(C(N)=O)C(=O)[C@@]3(O)C(O)=C1C2=O [L, Minocycline, reference compound]", "0.25 µg/mL"),
    ("CN(C)CC(=O)Nc1c(Cl)cc2c(c1O)C(=O)C1=C(O)[C@]3(O)C(=O)C(C(N)=O)=C(O)[C@@H](N(C)C)C3CC1C2 (stereo partly drawn)", "1 µg/mL"),
]

Next item in the queue.
Asked: MIC for CNCC(=O)Nc1c(Cl)cc2c(c1O)C(=O)C1=C(O)[C@]3(O)C(=O)C(C(N)=O)=C(O)[C@@H](N(C)C)C3CC1C2 (stereo partly drawn) [I, dihydrochloride] ?
Given back: 2 µg/mL

----------
- Test system: S. aureus NEMC 8769
- Experimental details: MIC, agar dilution method
- Assay type: cell-based
- Assay context: Staphylococcus aureus, NEMC8769, 18 h
Counter-ions that a name gives are not always drawn.
Quantity measured: MIC
Remember to follow the number with its unit.

Examples with answers:
# Compound, Assayed system, MIC
records = [
    ("CCCNCC(=O)Nc1c(Cl)cc2c(c1O)C(=O)C1=C(O)[C@]3(O)C(=O)C(C(N)=O)=C(O)[C@@H](N(C)C)C3CC1C2 (stereo partly drawn) [F, dihydrochloride]", "S. aureus NEMC 8769", "0.25 µg/mL"),
    ("CN(C)[C@@H]1C(O)=C(C(N)=O)C(=O)[C@@]2(O)C(O)=C3C(=O)c4c(cc(Cl)c(NC(=O)CN5CCCC5)c4O)CC3CC12 (stereo partly drawn) [E, dihydrochloride]", "S. aureus NEMC 8769", "0.25 µg/mL"),
    ("CN(C)CC(=O)Nc1c(Cl)cc2c(c1O)C(=O)C1=C(O)[C@]3(O)C(=O)C(C(N)=O)=C(O)[C@@H](N(C)C)C3CC1C2 (stereo partly drawn)", "S. aureus NEMC 8769", "0.03 µg/mL"),
]

Please give MIC, item by item, for the list that follows.
1. CCCCCNCC(=O)Nc1c(Cl)cc2c(c1O)C(=O)C1=C(O)[C@]3(O)C(=O)C(C(N)=O)=C(O)[C@@H](N(C)C)C3CC1C2 (stereo partly drawn) [H, dihydrochloride]
2. CNCC(=O)Nc1c(Cl)cc2c(c1O)C(=O)C1=C(O)[C@]3(O)C(=O)C(C(N)=O)=C(O)[C@@H](N(C)C)C3CC1C2 (stereo partly drawn) [I, dihydrochloride]

Given back:
1: 0.5 µg/mL; 2: 0.5 µg/mL

Asked: MIC for CN(C)CC(=O)Nc1c(O)c2c(c(N(C)C)c1Cl)CC1CC3[C@H](N(C)C)C(O)=C(C(N)=O)C(=O)[C@@]3(O)C(O)=C1C2=O (stereo partly drawn) ?
Given back: 0.12 µg/mL
